These entries and their values trace back to patent US8263636B2.

# target-entity: dipeptidyl peptidase IV (DPIV) (Homo sapiens, UniProt P27487)
# Sequence (P27487 whole entry, species assumed): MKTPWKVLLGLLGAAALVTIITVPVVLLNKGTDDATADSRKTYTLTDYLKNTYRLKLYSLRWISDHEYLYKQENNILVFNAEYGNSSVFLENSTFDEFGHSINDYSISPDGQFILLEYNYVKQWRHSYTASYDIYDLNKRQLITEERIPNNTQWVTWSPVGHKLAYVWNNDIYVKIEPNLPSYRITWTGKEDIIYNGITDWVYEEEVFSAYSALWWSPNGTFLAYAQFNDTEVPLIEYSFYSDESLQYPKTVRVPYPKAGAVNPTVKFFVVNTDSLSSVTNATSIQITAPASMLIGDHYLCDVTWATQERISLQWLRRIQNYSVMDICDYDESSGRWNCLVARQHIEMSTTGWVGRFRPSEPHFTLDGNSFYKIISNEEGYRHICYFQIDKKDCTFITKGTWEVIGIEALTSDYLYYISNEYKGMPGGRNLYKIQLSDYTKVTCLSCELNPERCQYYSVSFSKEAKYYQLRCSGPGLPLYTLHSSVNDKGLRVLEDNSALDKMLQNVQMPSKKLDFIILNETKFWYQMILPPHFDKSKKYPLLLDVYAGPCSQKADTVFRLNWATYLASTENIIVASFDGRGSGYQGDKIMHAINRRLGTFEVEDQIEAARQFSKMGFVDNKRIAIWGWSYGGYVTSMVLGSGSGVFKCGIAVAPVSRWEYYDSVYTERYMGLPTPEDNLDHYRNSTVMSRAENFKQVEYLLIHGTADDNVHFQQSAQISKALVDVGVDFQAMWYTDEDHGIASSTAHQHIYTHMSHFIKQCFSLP
# protocol-description: Inhibition of dipeptidyl peptidase IV enzymatic activity, fluorogenic substrate (Ala-Pro)2-rhodamine
# Type: biochemical
# condition-context: read-out: IC50 DPIV
pIC50: −log10 of the molar value.

# compound-string, pIC50
records = [
    ("Cc1ccc(C)n1-c1cccc(C(=O)N/N=C/c2cc(Br)c(O)c(Br)c2)c1", 4.39),
    ("Cc1ccc(/C=N/NC(=O)c2cccc(I)c2)o1", 4.24),
]

====

# target-entity: dipeptidyl peptidase IV (DPIV) (Homo sapiens)
# protocol-description: Inhibition of dipeptidyl peptidase IV enzymatic activity, fluorogenic substrate (Ala-Pro)2-rhodamine
# Type: biochemical
# condition-context: first value of cell DPIV/APN; unmarked = IC-50; read-out: IC50 DPIV
pIC50: −log10 of the molar value.

# compound, pIC50
data = [
    ("Cc1[nH]c2ccccc2c1C(c1ccccn1)N1CCN(c2ccc(F)cc2)CC1 (stereo not shown) [Compound C4.009]", 4.02),
    ("CCOC(=O)C1CCN(C(c2ccccn2)c2c(C)[nH]c3ccccc23)CC1 (stereo not shown) [Compound C4.007]", 4.49),
    ("Cc1[nH]c2ccccc2c1C(c1ccccn1)N1CCCC1 (stereo not shown) [Compound C4.011]", 3.77),
    ("Cc1[nH]c2ccccc2c1C(c1ccccn1)N1CCC(C(N)=O)CC1 (stereo not shown) [Compound C4.010]", 4.27),
    ("Cc1[nH]c2ccccc2c1C(c1ccccn1)N1CCCCC1 (stereo not shown) [Compound C4.013]", 4.13),
    ("COC(=O)C1=c2s/c(=C\\c3ccc(C)cc3)c(=O)n2C(N)=C(S(=O)(=O)c2ccccc2)C1c1ccc(C)cc1 (stereo not shown) [Compound C16.011]", 3.94),
    ("Cc1[nH]c2ccccc2c1C(c1ccccn1)N1CCOCC1 (stereo not shown) [Compound C4.012]", 4.23),
    ("COc1ccc(OCC(=O)N/N=C/c2cc(Br)c(O)c(O)c2Br)c(Br)c1 [Compound C2.005]", 4.39),
    ("Cc1[nH]c2ccccc2c1C(c1cccs1)N1CCC(C(N)=O)CC1 (stereo not shown) [Compound C4.014]", 4.21),
    ("Cc1[nH]c2ccccc2c1C(c1cccs1)N1CCCCC1 (stereo not shown) [Compound C4.017]", 4.17),
]
